Reference for the values: patent US10155733B2

Below, each entry is listed alongside its reported pIC50.
# TEST_TARGET: UniProt P20309
# Sequence (P20309 whole entry): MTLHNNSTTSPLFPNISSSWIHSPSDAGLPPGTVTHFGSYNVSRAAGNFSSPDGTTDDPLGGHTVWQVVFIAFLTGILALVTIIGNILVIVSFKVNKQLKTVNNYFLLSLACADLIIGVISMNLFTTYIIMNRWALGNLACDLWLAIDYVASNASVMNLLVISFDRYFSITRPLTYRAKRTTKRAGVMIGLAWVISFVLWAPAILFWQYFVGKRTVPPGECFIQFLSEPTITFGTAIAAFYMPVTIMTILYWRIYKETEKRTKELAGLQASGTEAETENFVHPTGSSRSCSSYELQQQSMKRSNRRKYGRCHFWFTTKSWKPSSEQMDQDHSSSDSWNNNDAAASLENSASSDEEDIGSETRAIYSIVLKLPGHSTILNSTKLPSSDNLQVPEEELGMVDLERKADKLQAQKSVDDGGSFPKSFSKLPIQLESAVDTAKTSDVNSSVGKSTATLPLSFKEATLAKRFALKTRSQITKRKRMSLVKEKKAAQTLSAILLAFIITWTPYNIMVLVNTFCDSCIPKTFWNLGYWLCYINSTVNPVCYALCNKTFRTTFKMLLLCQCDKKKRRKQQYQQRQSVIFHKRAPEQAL
# ASSAY_PROCEDURE: Muscarinic 3 receptor binding assay (3H-scopolamine displacement)
# EXPERIMENTAL_CONTEXT: CHO cell membranes expressing human M3 receptor, 3H-scopolamine
pIC50: −log10 of the molar value.

- MOLECULE: "CN1CCCN(C(=O)C(c2ccccc2)C2CCCC2)CC1 (stereo not shown) [Compound 3f]"
  TEST_TARGET: "UniProt P20309"
  pIC50: 6.39
- MOLECULE: "CCCCCCN1CCN(C(=O)C(c2ccccc2)C2CCCC2)CC1 (stereo not shown) [Compound 3d]"
  TEST_TARGET: "UniProt P20309"
  pIC50: 5.10
- MOLECULE: "O=C(C(c1ccccc1)C1CCCC1)N1CCN(C/C=C/c2ccccc2)CC1 (stereo not shown) [Compound 7c]"
  TEST_TARGET: "UniProt P20309"
  pIC50: 6.22
- MOLECULE: "O=C(C(c1ccccc1)C1CCCC1)N1CCN(CCC2CCCCC2)CC1 (stereo not shown) [Compound 9a]"
  TEST_TARGET: "UniProt P20309"
  pIC50: 5.22
- MOLECULE: "O=C(C(c1ccccc1)C1CCCC1)N1CCN(CCCc2ccccc2)CC1 (stereo not shown) [Compound 7b]"
  TEST_TARGET: "UniProt P20309"
  pIC50: 5.68
- MOLECULE: "CN1CCN(C(=O)C(c2ccccc2)C2CCCCC2)CC1 (stereo not shown) [Compound 3a]"
  TEST_TARGET: "UniProt P20309"
  pIC50: 5.28
- MOLECULE: "CN1CCN(C(=O)C(c2ccccc2)C2CCCC2)CC1 (stereo not shown) [Compound 3b]"
  TEST_TARGET: "UniProt P20309"
  pIC50: 5.68
